# System: MILI (PIWIL2) piRISC loaded with L1MC piRNA (26 nt);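 further: 1 nM active piRISC with 0.1 nM target library at 33 °C single turnover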
# Assay Explanation: pre-steady-state target cleavage rate (min^-1); guide: L1MC piRNA 5'p-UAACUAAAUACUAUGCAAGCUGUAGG; higher = faster piRNA-guided slicing of the target
# Experimental Conditions: auxiliary factor: 500 nM mouse GTSF1
Parameter Measured: pre-steady-state target cleavage rate
Quick one: just the number, no unit, thanks!

UCCUCCUACAGCUUGCAUAGUAUUUGGUUA = 0.279
UCCUGGAUGUCGAUGCAAAGUAUUUAGUUA = 0.00863

Task: Requested read-out: pre-steady-state target cleavage rate. Entry: UCCUGCUACAGUUUGCAUAGUAUUUAGUUA
Result: 0.296

Task: Field entry: UCCUGGUACACGAUGCAUAGUAUUUACAAA
Result: 0.00826

Task: Field entry: UCCUGGUACAGCUUCGUUAGUAUUUAGUUA
Result: 0.128

Task: Field entry: UCCUCCUACAGCUUGCAUAGUAUUUGUUA
Result: 0.203

Task: Field entry: UCCUGGAUGUCCUUGCAAAGUAUUUAGUAA
Result: 0.0311

Task: Field entry: UCCUGGAUGUCCUUGCAUAGUAUUUUCAUA
Result: 0.0192

----------
Measured pre-steady-state target cleavage rate, listed per entry.
# Tested on: MILI (PIWIL2) piRISC loaded with L1MC piRNA (26 nt);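 further: 1 nM active piRISC with 0.1 nM target library at 33 °C single turnover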
# Assay Explanation: pre-steady-state target cleavage rate (min^-1); guide: L1MC piRNA 5'p-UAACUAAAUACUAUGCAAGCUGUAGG; higher = faster piRNA-guided slicing of the target
# Experimental Conditions: auxiliary factor: 500 nM mouse GTSF1

Task: Requested read-out: pre-steady-state target cleavage rate. Entry: UCCUGGAUGACCUUGCAUAGUAUAUAGUUA
Result: 0.167

Task: Field entry: UCCUGGAUGUCGAAGCAUAGUAUUAUAGUUA
Result: 0.0614

Task: Field entry: UCCUGCUACCGCUUGCAUAGUAUUUAGUUA
Result: 0.368

Task: Field entry: UCCUGGUACAGCUUGGAUAGUAUUUUGUUA
Result: 0.0944

Task: Field entry: UCCUGCUACAGCAUGCAUAGUAAUUAGUUA
Result: 0.225

Task: Field entry: UCCUGGAACAGCUAGCAUACUAUUUAGUUA
Result: 0.0692

Task: Field entry: UCCUGCUACAGCUGUGCAUAGUAUUUAGUUA
Result: 0.263

Task: Field entry: UCCUGGAUGAGCUAGCAUAGUAUUUAGUAA
Result: 0.168

Task: Field entry: UCCUGGAUGUCCUAGCAUAGUAUUAAGUUA
Result: 0.0366

Task: Field entry: UCCUGCUACAGCUUGCAUAGUAUUUACUUA
Result: 0.171

Task: Field entry: UCCUCCUACAGCUAGCAUACUAUUUAGUUA
Result: 0.0706

Task: Field entry: UCCUCCUACAGCUUGCAUAGUAUUUAGUA
Result: 0.177

----------
# Test system: MILI (PIWIL2) piRISC loaded with L1MC piRNA (26 nt);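 further: 1 nM active piRISC with 0.1 nM target library at 33 °C single turnover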
# Assay Explanation: pre-steady-state target cleavage rate (min^-1); guide: L1MC piRNA 5'p-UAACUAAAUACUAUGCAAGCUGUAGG; MIWI and MILI are mouse PIWI proteins and EfPiwi is from a freshwater sponge; tags in brackets are library labels; higher = faster piRNA-guided slicing of the target
# Experimental Conditions: auxiliary factor: 500 nM mouse GTSF1
Parameter Measured: pre-steady-state target cleavage rate
Quick one: just the number, no unit, thanks!

Below, 4 sequences whose answers are already recorded.
UCCUGGUACAGCAUGCAUAGUAUUUAGUAA = 0.163
UCCUGCUACAGCUUGACAUAGUAUUUAGUUA = 0.226
UCCUGGAACAGCUUCGAUAGUAUUUAGUAA = 0.167
UCCUGCAACAGCUUGCAUAGUAUAUAGUUA = 0.36

Task: Requested read-out: pre-steady-state target cleavage rate. Entry: UCCUGGAUCAGCUUGCAUAGUAUUUAUUA
Result: 0.044

Task: Field entry: UCCUGGAACAGCUUGCAUAGUUAAUAGUUA
Result: 0.0282

Task: Field entry: UCCUGGAACAGCUUGCAUAGAAAUUAGUUA
Result: 0.0351

Task: Field entry: UCCUGGAUCAGCUUGCAAAGUAUUUAGAAA
Result: 0.0827

Task: Field entry: UCCUGGUACAGCUUGCAUAGUAUUUGGUUA
Result: 0.205
